Reference source for all entries: paper PMC8576102

ASSAY TARGET: hSERT (Homo sapiens, UniProt P31645)
Construct: YFP (yellow-fluorescent protein)
Sequence (P31645 whole entry): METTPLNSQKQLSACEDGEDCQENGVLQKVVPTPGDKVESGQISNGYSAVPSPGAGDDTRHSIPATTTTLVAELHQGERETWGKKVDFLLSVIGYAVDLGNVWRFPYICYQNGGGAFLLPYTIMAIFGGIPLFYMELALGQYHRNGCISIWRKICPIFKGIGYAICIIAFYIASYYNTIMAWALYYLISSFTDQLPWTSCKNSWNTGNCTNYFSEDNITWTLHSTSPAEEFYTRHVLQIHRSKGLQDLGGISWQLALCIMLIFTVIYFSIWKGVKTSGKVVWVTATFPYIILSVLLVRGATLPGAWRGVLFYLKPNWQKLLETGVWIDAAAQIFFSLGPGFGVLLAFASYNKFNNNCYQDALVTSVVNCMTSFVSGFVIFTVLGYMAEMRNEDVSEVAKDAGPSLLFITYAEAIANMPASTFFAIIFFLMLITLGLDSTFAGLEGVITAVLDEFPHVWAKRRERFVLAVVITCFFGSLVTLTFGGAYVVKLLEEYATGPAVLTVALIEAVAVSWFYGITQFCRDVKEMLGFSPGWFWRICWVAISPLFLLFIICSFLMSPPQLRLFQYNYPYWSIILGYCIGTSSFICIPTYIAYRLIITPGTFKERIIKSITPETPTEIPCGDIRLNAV
ASSAY METHOD TEXT: Uptake inhibition assay, [3H]5-HT uptake in transfected HEK293 cells
Lab note: anything with IC50 below 20 µM is marked YES; values at 20 µM or higher are marked NO.

Completed entries (count: 3):
CCCC(NCC)C(=O)c1ccc(C)cc1 (stereo not drawn) : YES
CCCC(NCC)C(=O)c1ccc2c(c1)OCO2 (stereo not drawn) : YES
CCCC(NC)C(=O)c1ccc2c(c1)OCO2 (stereo not drawn) : NO

Problem: Criterion: IC50 strictly below 20 µM. Is it met by CCCC(NCC)C(=O)c1ccccc1 (stereo not drawn) ?
Result: NO

Problem: Try the molecule CCCC(NC)C(=O)c1ccc(C)cc1 (stereo not drawn)
Result: NO

Problem: Here is the next molecule: CCCC(NC)C(=O)c1ccccc1 (stereo not drawn)
Result: NO

* * *

ASSAY TARGET: hDAT (Homo sapiens, UniProt Q01959)
Construct: YFP (yellow-fluorescent protein); expressed in transfected cells
Sequence (Q01959 whole entry): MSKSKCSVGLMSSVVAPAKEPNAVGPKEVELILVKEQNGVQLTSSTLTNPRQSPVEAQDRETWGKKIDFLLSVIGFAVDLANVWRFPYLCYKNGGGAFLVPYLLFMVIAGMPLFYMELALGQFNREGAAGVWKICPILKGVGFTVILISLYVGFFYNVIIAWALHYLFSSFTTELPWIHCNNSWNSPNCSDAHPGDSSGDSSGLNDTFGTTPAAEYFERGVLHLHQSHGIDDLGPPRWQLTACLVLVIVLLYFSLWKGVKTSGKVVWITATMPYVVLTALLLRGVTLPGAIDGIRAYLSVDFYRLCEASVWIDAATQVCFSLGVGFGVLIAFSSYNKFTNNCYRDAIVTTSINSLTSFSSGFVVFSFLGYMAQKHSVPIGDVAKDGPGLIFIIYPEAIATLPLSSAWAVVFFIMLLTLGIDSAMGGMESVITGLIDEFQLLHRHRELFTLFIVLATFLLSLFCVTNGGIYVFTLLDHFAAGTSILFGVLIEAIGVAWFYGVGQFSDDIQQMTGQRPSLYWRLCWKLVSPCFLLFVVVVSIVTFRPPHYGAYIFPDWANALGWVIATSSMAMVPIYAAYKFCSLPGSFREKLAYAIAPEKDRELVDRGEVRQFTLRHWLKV
ASSAY METHOD TEXT: Uptake inhibition assay, [3H]MPP+ uptake in transfected HEK293 cells
Format: cell-based
CONDITION PARAMETERS: 1/DAT IC50: 1/SERT IC50
Each record here notes measured hDAT/hSERT ratio.
Keep it simple and answer with nothing but the number.

CCCC(NC)C(=O)c1ccccc1 (stereo not drawn) : 666

Problem: Please report the recorded hDAT/hSERT ratio for CCCC(NC)C(=O)c1ccc(C)cc1 (stereo not drawn) .
Result: 108

Problem: Repeat with CCCC(NC)C(=O)c1ccc2c(c1)OCO2 (stereo not drawn)
Result: 45

Problem: Follow-up entry: CCCC(NCC)C(=O)c1ccc2c(c1)OCO2 (stereo not drawn)
Result: 51

Problem: Follow-up entry: CCCC(NCC)C(=O)c1ccc(C)cc1 (stereo not drawn)
Result: 93
